TESTED_SYSTEM: HSL (Homo sapiens, UniProt Q05469)
PROCEDURE_DETAILS: TEST 3180.2 HSL: percent inhibition at 10 μM, 3H-Triolein lipid emulsion
Format: biochemical
MEASUREMENT_CONDITIONS: 10 μM concentration; percent activity relative to an un-inhibited sample; 30 min preincubation, 30 min reaction at 25° C.; read-out: TEST 3180.2 HSL Activity (%)
Collected activity at 10 µM values appear next to each entry.
Use % as the unit, but write only the number.

{"COMPOUND": "Cc1ccc(B(O)O)o1", "activity at 10 µM [%]": 87}

Ask: Need activity at 10 µM of OB(O)c1ccccc1Br , thanks.
Reply: 81

Ask: Note, next up: OB(O)c1ccc(Br)c(F)c1F
Reply: 61

Ask: Item: OB(O)c1ccc(F)cc1
Reply: 65

Ask: Proceed to OB(O)c1cccc(OC(F)(F)F)c1
Reply: 27

Ask: // next record Cc1ccc(B(O)O)s1
Reply: 48

Ask: # repeat for CCOc1cccc(B(O)O)c1
Reply: 90

Ask: Would you kindly repeat that for Cc1csc(B(O)O)c1 ?
Reply: 49

====

TESTED_SYSTEM: hormone sensitive lipase (Homo sapiens, UniProt Q05469)
PROCEDURE_DETAILS: TEST 3190.1 HSL-FL: percent inhibition of hormone sensitive lipase at 10 μM, fluorochrome-labeled triacylglyceride emulsion
Format: biochemical
MEASUREMENT_CONDITIONS: 10 μM sample concentration; percent activity relative to a non-inhibited sample; 30 min preincubation 25° C., 120 min at 37° C.
Experimental: 3190.1: Assay for determination of percent inhibition of hormone sensitive lipase by compound at 10 μM sample concentration. A lipid emulsion with fluorochrome-labeled triacylglyceride and phospholipid is used as substrate with a standard concentration of highly purified HSL (12 μg/mL initial concentration corresponding to 600 ng/mL final concentration). […] The changes can be monitored on a fluorimeter with an excitation wavelength of 450 nm and an emission wavelength of 545 nm. […]
Entries annotated with measured activity at 10 µM
// return numeric value only (unit: %, not printed)

Ask: Query: activity at 10 µM; subject: CC1(C)COB(c2cccc(Br)c2)OC1
Reply: 11

Ask: Cool, now Fc1cc(B2OCCNCCO2)cc(F)c1F
Reply: 32

Ask: How about OB(O)c1ccc(Cl)c(Cl)c1 ?
Reply: 53

Ask: // query: O=Cc1cccc(B(O)O)c1
Reply: 80

Ask: Would you mind doing FC(F)(F)c1cccc(B2OCCNCCO2)c1 as well?
Reply: 29

====

TESTED_SYSTEM: UniProt Q05469
Sequence (Q05469 1-1076): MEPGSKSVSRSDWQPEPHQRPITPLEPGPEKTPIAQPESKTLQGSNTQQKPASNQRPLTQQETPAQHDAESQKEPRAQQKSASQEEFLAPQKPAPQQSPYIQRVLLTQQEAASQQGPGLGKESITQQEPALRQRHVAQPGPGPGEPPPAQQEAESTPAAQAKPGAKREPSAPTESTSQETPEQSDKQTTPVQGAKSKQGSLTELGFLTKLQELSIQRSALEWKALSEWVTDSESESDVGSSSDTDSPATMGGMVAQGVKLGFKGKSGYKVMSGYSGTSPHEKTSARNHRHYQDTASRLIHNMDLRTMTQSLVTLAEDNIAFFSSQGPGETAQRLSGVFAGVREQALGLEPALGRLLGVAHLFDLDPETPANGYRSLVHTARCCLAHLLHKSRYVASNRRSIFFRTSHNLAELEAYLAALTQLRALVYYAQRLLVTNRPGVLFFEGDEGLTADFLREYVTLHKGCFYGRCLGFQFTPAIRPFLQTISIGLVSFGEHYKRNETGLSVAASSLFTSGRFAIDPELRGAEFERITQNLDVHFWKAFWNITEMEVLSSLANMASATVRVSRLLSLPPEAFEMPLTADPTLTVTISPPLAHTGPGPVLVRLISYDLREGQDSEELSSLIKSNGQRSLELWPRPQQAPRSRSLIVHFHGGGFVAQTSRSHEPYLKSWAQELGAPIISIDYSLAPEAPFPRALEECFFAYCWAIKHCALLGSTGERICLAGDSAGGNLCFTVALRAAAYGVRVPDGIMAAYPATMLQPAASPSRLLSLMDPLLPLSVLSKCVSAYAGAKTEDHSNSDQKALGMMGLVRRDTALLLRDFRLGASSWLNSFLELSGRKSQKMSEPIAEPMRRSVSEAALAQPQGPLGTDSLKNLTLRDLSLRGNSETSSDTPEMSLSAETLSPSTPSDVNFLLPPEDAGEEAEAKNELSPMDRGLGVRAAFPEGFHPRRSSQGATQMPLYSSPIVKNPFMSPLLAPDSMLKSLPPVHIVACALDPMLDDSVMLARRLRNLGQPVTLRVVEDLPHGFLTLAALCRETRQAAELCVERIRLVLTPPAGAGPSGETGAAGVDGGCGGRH
PROCEDURE_DETAILS: TEST 3180.2 HSL: percent inhibition at 10 μM, 3H-Triolein lipid emulsion
Assay type: biochemical
MEASUREMENT_CONDITIONS: 10 μM concentration; percent activity relative to an un-inhibited sample; 30 min preincubation, 30 min reaction at 25° C.; read-out: TEST 3180.2 HSL Activity (%)
VALUE_TYPE: activity at 10 µM (%)
Use % as the unit, but write only the number.

{"COMPOUND": "OB(O)c1cccc(Br)c1", "TESTED_SYSTEM": "UniProt Q05469", "activity at 10 µM (%)": 33}
{"COMPOUND": "OB(O)c1cccc(Cl)c1Cl", "TESTED_SYSTEM": "UniProt Q05469", "activity at 10 µM (%)": 66}
{"COMPOUND": "CC1(C)COB(c2ccccc2F)OC1", "TESTED_SYSTEM": "UniProt Q05469", "activity at 10 µM (%)": 68}

Ask: Look up activity at 10 µM: OB(O)c1ccc(Cl)s1
Reply: 17

Ask: What about COc1ccc(F)cc1B(O)O ?
Reply: 62

Ask: What do you get for CC1(C)COB(c2cc(F)cc(F)c2)OC1 ?
Reply: 38

Ask: Would you mind doing CC1(C)COB(c2ccccc2C#N)OC1 as well?
Reply: 97

Ask: // repeat for OB(O)c1cccc(Cl)c1 and report
Reply: 34

Ask: Again, but for OB(O)c1cccs1
Reply: 66

Ask: Another compound to look at: OB(O)c1cc(C(F)(F)F)cc(C(F)(F)F)c1
Reply: 89

Ask: Lookup OB(O)c1cc2ccccc2o1 [Example 91, BENZO[B]FURAN-2-BORONIC ACID]
Reply: 57

Ask: Try this compound next: OB(O)c1sccc1Br
Reply: 84

Ask: Try this compound too: OB(O)c1cc(Cl)cc(Cl)c1Cl
Reply: 76

Ask: And the next one, Cc1cccc(B(O)O)c1 ?
Reply: 64

Ask: Would you kindly repeat that for OB(O)c1cc(F)c(F)c(F)c1 ?
Reply: 26

Ask: Would you mind doing OB(O)c1cccc(F)c1F as well?
Reply: 55

Ask: Another compound to check: OB(O)c1cc(Cl)cc(Cl)c1
Reply: 46

Ask: Follow-up entry: c1ccc2c(c1)OB(c1ccsc1)O2
Reply: 89

Ask: Same question for CCOC(=O)c1ccccc1B1OCC(C)(C)CO1 please.
Reply: 93
